Values were extracted from ChEMBL document CHEMBL2331080.

- TARGET: Gamma-secretase (Homo sapiens) (UniProt Q96BI3+Q9NZ42+Q8WW43+P49768+Q92542+P49810)
- ASSAY METHOD TEXT: Inhibition of gamma-secretase-mediated betaAPP K670N/M671L mutant cleavage in HEK293 cells assessed as inhibition of amyloid beta40/42 production at 60 uM after 8 hrs by chemiluminescence assay relative to control
- Assay type: cell-based
Active and inactive are the calls of the source. No cut-off for these calls is given here.
MEASURE: inhibition

INSERT INTO measurements (compound, meas_value) VALUES
  ('CC(C)C[C@@H](NC(=O)[C@H](Cc1ccccc1)NC(=O)c1cnccn1)B1O[C@H]2C[C@H]3C[C@H](C3(C)C)[C@@]2(C)O1', 'inactive'),
  ('C=CCOC(=O)Nc1ccc2c(Cl)c(OC)oc(=O)c2c1', 'inactive'),
  ('CC(C)C[C@@H](NC(=O)[C@H](Cc1ccccc1)NC(=O)c1ccccc1)B1O[C@H]2C[C@H]3C[C@H](C3(C)C)[C@@]2(C)O1', '> 50%'),
  ('COc1oc(=O)c2cc(NC(=O)OC34CC5CC(CC(C5)C3)C4)ccc2c1Cl', 'inactive'),
  ('CC(C)C[C@H](NC(=O)[C@H](Cc1ccccc1)NC(=O)c1ccccc1)B1O[C@H]2C[C@H]3C[C@H](C3(C)C)[C@@]2(C)O1', '> 50%'),
  ('COCCOc1cc2ccc([N+](=O)[O-])cc2c(=O)o1', '> 50%'),
  ('CC(C)C[C@H](NC(=O)[C@H](Cc1ccccc1)NC(=O)c1cnccn1)B1O[C@H]2C[C@H]3C[C@H](C3(C)C)[C@@]2(C)O1', 'inactive'),
  ('CCOc1oc(=O)c2cc([N+](=O)[O-])ccc2c1Cl', 'inactive'),
  ('COc1ccc(CNc2ccc3c(Cl)c(OC)oc(=O)c3c2)cc1', 'inactive'),
  ('COc1oc(=O)c2cc(NC(=O)OC(C)(C)C)ccc2c1Cl', 'inactive'),
  ('COc1oc(=O)c2cc(NC(=O)OCc3ccccc3)ccc2c1Cl', 'inactive'),
  ('CCOc1oc(=O)c2cc(N)ccc2c1Cl', '> 50%'),
  ('Nc1ccc2cc(OCCBr)oc(=O)c2c1', 'inactive'),
  ('COc1oc(=O)c2cc(NC(C)=O)ccc2c1Cl', 'inactive'),
  ('CC(C)C[C@@H](NC(=O)[C@H](Cc1ccccc1)NC(=O)c1ccccc1)B(O)O', '> 50%'),
  ('CCC(C)Oc1oc(=O)c2cc([N+](=O)[O-])ccc2c1Cl (stereo unspecified)', 'inactive'),
  ('CCOC(=O)Nc1ccc2c(Cl)c(OC)oc(=O)c2c1', 'inactive'),
  ('COc1oc(=O)c2cc(NC(=O)OCC3c4ccccc4-c4ccccc43)ccc2c1Cl', 'inactive'),
  ('COCCOc1cc2ccc(N)cc2c(=O)o1', 'inactive'),
  ('COc1oc(=O)c2cc(NC/C=C\c3ccccc3)ccc2c1Cl', 'inactive'),
  ('CCCCOc1oc(=O)c2cc([N+](=O)[O-])ccc2c1Cl', 'inactive');

###

Each item that follows carries a reported half-life.
- ASSAY METHOD TEXT: Half life of the compound in buffer
- Assay type: physicochemical
MEASURE: half-life

INSERT INTO results (molecule, meas_value) VALUES
  ('CCCCOc1oc(=O)c2cc([N+](=O)[O-])ccc2c1Cl', '< 20 min'),
  ('CCC(C)Oc1oc(=O)c2cc([N+](=O)[O-])ccc2c1Cl (stereo not drawn)', '< 20 min'),
  ('CCOc1oc(=O)c2cc([N+](=O)[O-])ccc2c1Cl', '< 20 min');

###

- TARGET: Proteasome Macropain subunit MB1 (Homo sapiens)
- Sequence (P28074 whole entry): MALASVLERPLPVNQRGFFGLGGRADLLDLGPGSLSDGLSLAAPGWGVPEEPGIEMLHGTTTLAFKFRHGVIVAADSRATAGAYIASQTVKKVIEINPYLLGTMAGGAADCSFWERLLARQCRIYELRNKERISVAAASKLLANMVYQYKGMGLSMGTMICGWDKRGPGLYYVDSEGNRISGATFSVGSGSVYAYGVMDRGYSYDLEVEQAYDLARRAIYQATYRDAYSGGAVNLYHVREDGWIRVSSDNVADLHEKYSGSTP
- ASSAY METHOD TEXT: Inhibition of chymotrypsin-like activity of Proteasome subunit beta 5 (unknown origin) assessed as inhibition of beta-amyloid production by cell-based assay
MEASURE: IC50 (nM)

INSERT INTO measurements (compound, measure, output_unit, meas_value) VALUES
  ('CC(C)C[C@H](NC(=O)[C@H](Cc1ccccc1)NC(=O)c1ccccc1)B(O)O', 'IC50', 'nM', 9);

###

- TARGET: Gamma-secretase (Homo sapiens) (UniProt Q96BI3+Q9NZ42+Q8WW43+P49768+Q92542+P49810)
- ASSAY METHOD TEXT: Inhibition of gamma-secretase-mediated betaAPP K670N/M671L mutant cleavage in HEK293 cells assessed as inhibition of amyloid beta40/42 production at 60 uM after 8 hrs by chemiluminescence assay relative to control
- Type: cell-based
Calls of active or inactive are those of the source. The calls are words filed in the database; no cut-off is given here.
MEASURE: inhibition

INSERT INTO results (compound, meas_value) VALUES
  ('COc1cc2ccc(N)cc2c(=O)o1', 'inactive'),
  ('O=c1oc(OCCBr)cc2ccc([N+](=O)[O-])cc12', '> 50%'),
  ('COc1oc(=O)c2cc(NCCCc3ccccc3)ccc2c1Cl', 'inactive'),
  ('CC(C)C[C@@H](NC(=O)[C@H](Cc1ccccc1)NC(=O)c1cnccn1)B(O)O', 'inactive'),
  ('COc1oc(=O)c2cc(NCCC(C)C)ccc2c1Cl', '> 50%'),
  ('CCCCCCCC(=O)Nc1ccc2c(Cl)c(OC)oc(=O)c2c1', 'inactive');

###

- System: HEK293
- ASSAY METHOD TEXT: Cytotoxicity against HEK293 cells overexpressing betaAPP K670N/M671L mutant at 10 to 30 uM by LDH release assay
- Format: cell-based
- STUDY CONDITIONS: human, hek293, 30 µM
MEASURE: Activity

INSERT INTO assay_data (compound, target, measure, meas_value) VALUES
  ('COc1oc(=O)c2cc(NCc3ccc4ccccc4c3)ccc2c1Cl', 'HEK293', 'Activity', 'Non-toxic'),
  ('COc1oc(=O)c2cc(NCc3ccccc3[N+](=O)[O-])ccc2c1Cl', 'HEK293', 'Activity', 'Non-toxic'),
  ('COc1oc(=O)c2cc(NCC3CCCCC3)ccc2c1Cl', 'HEK293', 'Activity', 'Toxic'),
  ('COc1oc(=O)c2cc(NCCC(C)(C)C)ccc2c1Cl', 'HEK293', 'Activity', 'Toxic'),
  ('CCCCCCCCCNc1ccc2c(Cl)c(OC)oc(=O)c2c1', 'HEK293', 'Activity', 'Non-toxic'),
  ('CCCCC(CC)CNc1ccc2c(Cl)c(OC)oc(=O)c2c1 (centres undefined)', 'HEK293', 'Activity', 'Toxic'),
  ('COc1oc(=O)c2cc(NCc3ccc([N+](=O)[O-])cc3)ccc2c1Cl', 'HEK293', 'Activity', 'Non-toxic'),
  ('COc1oc(=O)c2cc(NCc3ccc(OCc4ccccc4)cc3)ccc2c1Cl', 'HEK293', 'Activity', 'Non-toxic'),
  ('COc1oc(=O)c2cc(NCC(C)C)ccc2c1Cl', 'HEK293', 'Activity', 'Non-toxic');

###

- TARGET: Gamma-secretase (Homo sapiens) (UniProt Q96BI3+Q9NZ42+Q8WW43+P49768+Q92542+P49810)
- ASSAY METHOD TEXT: Inhibition of gamma-secretase-mediated betaAPP K670N/M671L mutant cleavage in HEK293 cells assessed as inhibition of amyloid beta40/42 production at 60 uM after 8 hrs by chemiluminescence assay relative to control
- Assay type: cell-based
The source made the active and inactive calls. The calls are words filed in the database; no cut-off is given here.
MEASURE: inhibition

INSERT INTO measurements (compound, measure, meas_value) VALUES
  ('COc1oc(=O)c2cc(NCc3ccccc3)ccc2c1Cl', 'inhibition', 'inactive'),
  ('CC(C)C[C@H](NC(=O)[C@H](Cc1ccccc1)NC(=O)c1ccccc1)B(O)O', 'inhibition', '> 50%'),
  ('COc1oc(=O)c2cc(NCc3ccc([N+](=O)[O-])cc3)ccc2c1Cl', 'inhibition', '> 50%'),
  ('COc1oc(=O)c2cc(NC(=O)OCC(Cl)(Cl)Cl)ccc2c1Cl', 'inhibition', 'inactive'),
  ('CCCCCCNc1ccc2c(Cl)c(OC)oc(=O)c2c1', 'inhibition', '> 50%'),
  ('COc1oc(=O)c2cc(Nc3cccc([N+](=O)[O-])c3)ccc2c1Cl', 'inhibition', 'inactive'),
  ('COc1oc(=O)c2cc(NCc3cccc4ccccc34)ccc2c1Cl', 'inhibition', '> 50%'),
  ('COc1oc(=O)c2cc(NCC(C)C)ccc2c1Cl', 'inhibition', '> 50%'),
  ('COc1oc(=O)c2cc(NC(=O)C(F)(F)C(F)(F)F)ccc2c1Cl', 'inhibition', 'inactive'),
  ('CC(C)C[C@H](NC(=O)[C@H](Cc1ccccc1)NC(=O)c1cnccn1)B(O)O', 'inhibition', 'inactive'),
  ('COc1oc(=O)c2cc(NC(=O)CCCC(=O)O)ccc2c1Cl', 'inhibition', 'inactive');
